Assay: In vitro cell permeability assay
Conditions: pig, LLC-PK1, pH 7.4, with elacridar (GF120918) 5 µM, Efflux ratio BA/AB, LLC-Parent, + 5 µM GF120918
Metric name: efflux ratio at 120 min, 30 nM
Simply state the number, no unit and no words.

State the recorded efflux ratio at 120 min, 30 nM for this entry: C[C@H]1O[C@@H](O[C@H]2[C@@H](O)C[C@H](O[C@H]3[C@@H](O)C[C@H](O[C@H]4CC[C@@]5(C)[C@H](CC[C@@H]6[C@@H]5C[C@@H](O)[C@]5(C)[C@@H](C7=CC(=O)OC7)CC[C@]65O)C4)O[C@@H]3C)O[C@@H]2C)C[C@H](O)[C@@H]1O [3H-Digoxin, Digoxin, reference compound]
0.9

---

Assay: In vitro cell permeability / P-gp substrate assay
Details: LLC-PK1, Papp AB, LLC-MDR1, apical to basolateral, + 5 µM GF120918
Metric name: Papp A→B (×10⁻⁶ cm/s)
Give the number; ×10⁻⁶ cm/s is assumed, so skip it.

# get_value(readout='Papp A→B', item= `CSCC[C@@H]1NC(=O)CNC(=O)CNC(=O)[C@H](C)NC(=O)[C@H](C(C)C)NC(=O)CNC(=O)[C@H](CC(C)C)NC(=O)[C@@H]2CCCN2C(=O)[C@H](CC(=O)O)NC(=O)[C@H](CCC(=O)O)NC(=O)[C@H](Cc2ccc(O)cc2)NC(=O)[C@H](CC(C)C)NC(=O)[C@H](CO)NC(=O)[C@H](C(C)C)NC(=O)[C@H]2CCCN2C(=O)[C@@H]2CCCN2C(=O)[C@H](Cc2ccc(O)cc2)NC(=O)[C@H](C(C)C)NC(=O)CNC1=O` )
0.23

---

Test system: H1/NCa HA (A/New Caledonia/20/1999 (H1N1))
Type: binding, influenza A virus
Metric name: pIC50
As a rule, pIC50 stands for the negative log10 of the concentration, concentration in M.

Query for H1/NCa HA (A/New Caledonia/20/1999 (H1N1)): what pIC50 does the record show for CSCC[C@@H]1NC(=O)CNC(=O)CNC(=O)[C@H](C)NC(=O)[C@H](C(C)C)NC(=O)CNC(=O)[C@H](CC(C)C)NC(=O)[C@@H]2CCCN2C(=O)[C@H](CC(=O)O)NC(=O)[C@H](CCC(=O)O)NC(=O)[C@H](Cc2ccc(O)cc2)NC(=O)[C@@H](NC(=O)CCC(=O)O)CSSC[C@@H](C(N)=O)NC1=O [CP12] ?
5.31

---

System: P-gp (MDR1)
Assay: In vitro cell permeability / P-gp substrate assay
Settings: pig, LLC-PK1, pH 7.4, with 5 µM GF120918 (elacridar), Papp AB, LLC-MDR1, apical to basolateral, + 5 µM GF120918
Metric name: Papp A→B at 120 min, 5 µM

Given the entry CSCC[C@@H]1NC(=O)CNC(=O)CNC(=O)[C@H](C)NC(=O)[C@H](C(C)C)NC(=O)CNC(=O)[C@H](CC(C)C)NC(=O)[C@@H]2CCCN2C(=O)[C@H](CC(=O)O)NC(=O)[C@H](CCC(=O)O)NC(=O)[C@H](Cc2ccc(O)cc2)NC(=O)[C@H](CC(C)C)NC(=O)CNC1=O [CP14] , report its measured Papp A→B at 120 min, 5 µM.
0.25 ×10⁻⁶ cm/s
